Where do these numbers come from? They come from ChEMBL document CHEMBL3865800.

assay: Binding affinity to F10T duplex DNA (unknown origin) assessed as change in melting temperature by FRET assay
Reported ΔTm is given for each of the following compounds.

smiles string	ΔTm
CCN(CC)CCC(=O)Nc1ccc(Nc2nc(-c3ccccc3NC(=O)CCN(CC)CC)nc3ccccc23)cc1	0.8 °C
CCN(CC)CC(=O)Nc1ccc(Nc2nc(-c3ccc(O)cc3)nc3ccccc23)cc1	0.7 °C
O=C(CCN1CCCC1)Nc1ccc(Nc2nc(-c3ccccc3NC(=O)CCN3CCCC3)nc3ccccc23)cc1	0.9 °C
CN1CCN(CC(=O)Nc2ccc(Nc3nc(-c4ccccc4NC(=O)CN4CCN(C)CC4)nc4ccccc34)cc2)CC1	0.1 °C
